I'd be grateful if you could share measured ODC activity, percent of untreated control for these entries.
system: ornithine decarboxylase (ODC); test: ODC activity in treated L1210 cells; assay type: cell-based, murine; conditions: L1210, 1 μM at 4 hours
Where a name gives a salt, the structure may show the parent alone.

Lookup: Form field: ODC activity, percent of untreated control recorded for CCCNCCCCNCCCNCCC [DPSPD, Trihydrochloride] with ornithine decarboxylase (ODC) (enter value)
Found: 75% of untreated control

Lookup: Notebook: pull reported ODC activity, percent of untreated control for ornithine decarboxylase (ODC), entry CCNCCCCCNCCCCNCC [DE(4,5), 3,8,14-Triazahexadecane Trihydrochloride]
Found: 100% of untreated control

Lookup: Enter reported ODC activity, percent of untreated control observed with ornithine decarboxylase (ODC) for CCCNCCCNCCCNCCC [DPNSPD, Trihydrochloride]
Found: 100% of untreated control

Lookup: Find the measured ODC activity, percent of untreated control: item CCNCCCCNCCCN [MESPD(N8), N^8-Ethylspermidine Trihydrochloride] , target or system ornithine decarboxylase (ODC).
Found: 17% of untreated control

Lookup: Form field: ODC activity, percent of untreated control recorded for CCNCCCNCCCNCC [DENSPD, Trihydrochloride] with ornithine decarboxylase (ODC) (enter value)
Found: 80% of untreated control

Lookup: Query the reported ODC activity, percent of untreated control for ornithine decarboxylase (ODC); item: CCCNCCCNCCCN [MPNSPD, N^1-Propylnorspermidine Trihydrochloride]
Found: 33% of untreated control

Lookup: Return ODC activity, percent of untreated control measured with ornithine decarboxylase (ODC) given this compound: CCCNCCCCCNCCCCNCCC [DP(4,5), 4,9,15-Triazaoctadecane Trihydrochloride]
Found: 83% of untreated control

Lookup: Field: ODC activity, percent of untreated control (ornithine decarboxylase (ODC)). Entry: CCCNCCCCCNCCCCCNCCC [DP(5,5), Trihydrochloride]
Found: 73% of untreated control

* * *

tested on: L1210 cells; assay: Polyamine pool analysis in L1210 cells; assay type: cell-based, murine; settings: intracellular amount; 500 μM, 48 hours
Counter-ions that a name gives are not always drawn.
just bin them by Analogue: bin A = under 4 nmol/10^6 cells, bin B = from 4 nmol/10^6 cells up to 5 nmol/10^6 cells, bin C = 5 nmol/10^6 cells and over

Lookup: Bin? CCCNCCCNCCCN [MPNSPD, N^1-Propylnorspermidine Trihydrochloride]
Found: bin B

Lookup: State the band of CCCNCCCCNCCCCN [MPHSPD, Trihydrochloride]
Found: bin C

Lookup: Using the reported Analogue, which band applies to CCCNCCCCNCCCNCCC [DPSPD, Trihydrochloride] ?
Found: bin A

Lookup: Using the reported Analogue, which band applies to CCNCCCNCCCCN [MESPD(N1), N^1-Ethylspermidine Trihydrochloride] ?
Found: bin B

Lookup: Category of CNCCCCNCCCCNC [DMHSPD, Trihydrochloride] :
Found: bin C

Lookup: Which category fits this record: CCCNCCCCCNCCCCCNCCC [DP(5,5), Trihydrochloride]
Found: bin A

Lookup: Bin? CNCCCNCCCNC [DMNSPD, Trihydrochloride]
Found: bin C

Lookup: Quick check: band for CCCNCCCCCNCCCCNCCC [DP(4,5), 4,9,15-Triazaoctadecane Trihydrochloride]
Found: bin A

Lookup: Could you tell me which band CCNCCCCNCCCNCC [DESPD, Trihydrochloride] belongs to?
Found: bin B

Lookup: Class label required: NCCCCCNCCCCN [4,5-Triamine, 1,6,12-Triazadodecane Trihydrochloride]
Found: bin A
